measurementDescription: protein stability index of a GFP-peptide fusion (yeast GPS) (PSI 1-4); higher = more stable; sorted into four equal gates, so the index is relative within each strain
conditionDetails: pdr5∆
measuredMetric: protein stability index

>>> result("DDNEMTRDDLLTILMRS [RRI2]")
2.66
>>> result("HLCSGILSSVNRTVLLK [SRB8]")
1.67
>>> result("RVKIANTSAATVHTATS [SSN2]")
2.65
>>> result("LSKMRDSVLQLASFEKT [RPO31]")
2.97
>>> result("KEDEPVVARRSNSANVS [ITC1]")
3.06
>>> result("LEDDSLLSYPIKLDRWL [RPN12]")
2.87
>>> result("RAQEEVKRIQSVPLVIG [RPT3]")
3.16
>>> result("TGEAQVDNSPTTESNSR [YLR335W/NUP2]")
2.83
>>> result("ISMILRNISFSDNNSRI [SWI1]")
2.86
>>> result("IVKRLYEYGAVSVLLIS [BRR2]")
2.39

---

measurementDescription: protein stability index of a GFP-peptide fusion (yeast GPS) (PSI 1-4); higher = more stable; sorted into four equal gates, so the index is relative within each strain
conditionDetails: san1∆
measuredMetric: protein stability index

>>> result("LKNTKYFQQTTIDWVEA [PRP8]")
2.83
>>> result("ISALTQTEIKDIILGQN [PRP8]")
1.92
>>> result("KDPDVPLVLLQQIPLLC [POP3]")
2.4
>>> result("VSECIILGQTMSIGTGS [RPO31]")
1.89
>>> result("ADDHASVQINVAKVDEE [RPS21A]")
3.13
>>> result("STANPNIKLLNNRMGSY [POP1]")
2.56
>>> result("INTLNGGSSDTADKIRI [GAL11]")
1.27
>>> result("KENLSKSSWRQEWLANL [SIR4]")
1.92
>>> result("AQNVPMNIIQQQQQQNT [GAL11]")
2.45
>>> result("MDFGVDPSMDPELAMAL [RPN10]")
2.99
>>> result("VEKGTPLGKILLKGDNI [SME1]")
3.38
>>> result("LGVEDITLIDSASLHLN [RET1]")
1.8
>>> result("RRISSMPGGYFHSEISP [YAR002W/NUP60]")
2.96
>>> result("FKHISVKDFTSLGFNEV [RPO21]")
2
>>> result("ITSIMDDLALPYQHPPN [ITC1]")
3.08
>>> result("NWRLVEVGRVVLIKKGQ [RPL14A]")
2.15
>>> result("SKKDPRILKNVSPNDNN [YMR153W/NUP53]")
2.42
>>> result("SVTVSQGNYVTEDIREG [YMR129W/POM152]")
2.87
>>> result("KESWDPNTTKTKLRAFV [YGR119C/NUP57]")
3.37
>>> result("QIEKKKICRGRMNTIIT [SIR4]")
3.52
>>> result("FIKFKLIQQVPPGLDAL [CDC53]")
2.23
>>> result("KDEETTEKARLIDFEYV [RRI2]")
3.56
>>> result("NTHAVLVALKRNADELS [PRE5]")
2.45
>>> result("EGAEPGPPYTTDEHLIF [ISW2]")
2.42
>>> result("HKLDLAKRNLDANPSSQ [SMC2]")
1.67
>>> result("RDYSKEILGINLANEQP [SIR4]")
3.07
>>> result("EAFIASGITDPYEMYKY [FAS2]")
1.73
>>> result("LSTLPAGKSLVSKSEPK [QCR2]")
2.68
>>> result("HINKIPSNSTTTLHGPG [SRB8]")
2.96
>>> result("FDQSTNVKVIMATNRAD [RPT3]")
1.52
>>> result("GSSNKAVVQTVKGLLNT [YJL039C/NUP192]")
2.59
>>> result("ADKSLPSSMATLLKNLR [YJR042W/NUP85]")
2.87
>>> result("WAVTLDTSRPDLEWQEL [DSN1]")
3.13
>>> result("ILLRYHHNDISNDSQSH [YCG1]")
1.96
>>> result("ISIPKTCDEIQNFENDF [REC8]")
2.61
>>> result("QFPEIAYPGKLICPQYG [CSL4]")
1.94
>>> result("KDNAIYNGFIDIFSNLS [YCS4]")
2.87
>>> result("GKIVGFDEFMNVVIDEA [SME1]")
3.36
>>> result("HIFQVEYALEAVKRGTC [PRE6]")
2.54
>>> result("IGLLNKSKSSLDGKFSL [RPN2]")
2.5
>>> result("TPYNIDRLTQLVRNGPN [RPO21]")
3.17
>>> result("LIETVFVKNIRMLSFED [RPN9]")
1.78
>>> result("KEDEPVVARRSNSANVS [ITC1]")
2.57
>>> result("LNPNEYFSVTTARRNVS [SWI3]")
1.85
>>> result("HKKDRLQYLPLYAVSTF [SIR4]")
1.35
>>> result("NASGNKRSGVIETVDDK [ITC1]")
2.27
>>> result("LYVLPSFNIPRLTFKPW [YMR129W/POM152]")
1.69
>>> result("LGKWYSKEDYETLKRDR [ARP7]")
3.33
>>> result("NSEISNLPKDKSGIPEF [SSN2]")
2.9
>>> result("IHIQSKENYPWELYTDF [POP3]")
2.69
>>> result("SKNMSKSPSLTAQKYPI [YMR153W/NUP53]")
2.48
>>> result("FYQQVHKKDRLQYLPLY [SIR4]")
1.75
>>> result("WEQLKITVVPVVAAAED [QCR6]")
1.99
>>> result("LKTFNGSLALLKLSMAD [POP4]")
2.45
>>> result("KALDNACGAFININEFA [CDC53]")
2.71
>>> result("GCLIKNLPRTKAKSVVN [RMP1]")
1.92
